experiment: HEp-2 CC50 (cytotoxicity, Cell-Titer Glo); assay type: cell-based; details: human; uninfected HEp-2 cells, 4-5 days
Metric: CC50

Dear colleague, I am looking for the recorded CC50 of the following compound: CCOC(=O)[C@H](C)N[P@](=O)(OC[C@@]1(C#N)O[C@@H](c2ccc3c(N)ncnn23)[C@@H]2OC(OCC)O[C@@H]21)Oc1ccccc1 (stereo partly drawn)
> 50 µM

Dear colleague, I am looking for the recorded CC50 of the following compound: CC(C)OC(=O)[C@H](C)N[P@](=O)(OC[C@@]1(C#N)O[C@@H](c2ccc3c(N)ncnn23)[C@H](O)[C@@H]1OC(=O)C(C)C)Oc1ccccc1 (single isomer, unassigned)
> 50 µM

Dear colleague, I am looking for the recorded CC50 of the following compound: COC(=O)[C@H](C)N[P@](=O)(OC[C@@]1(C#N)O[C@@H](c2ccc3c(N)ncnn23)[C@H](OC(=O)C(C)C)[C@@H]1O)Oc1ccccc1
> 50 µM

Dear colleague, I am looking for the recorded CC50 of the following compound: CCOC(=O)c1ccccc1OP1(=O)OC[C@@]2(C#N)O[C@@H](c3ccc4c(N)ncnn34)[C@H](OC(=O)CC)[C@@H]2O1 (stereo partly drawn)
> 50 µM

Dear colleague, I am looking for the recorded CC50 of the following compound: CC(C)OC(=O)[C@H](C)N[P@](=O)(OC[C@@]1(C#N)O[C@@H](c2ccc3c(N)ncnn23)[C@H](O)[C@@H]1OC(=O)C(C)(C)C)Oc1ccccc1 (single isomer, unassigned)
> 50 µM

----------
Listing of recorded CC50 by entry.
assay: in vitro; settings: human

INSERT INTO assay_data (molecule, result) VALUES
  ('CC(C)OC(=O)[C@H](C)N[P@](=O)(OC[C@@]1(C#N)O[C@@H](c2ccc3c(N)ncnn23)[C@H](O)[C@@H]1OC(=O)C(C)(C)C)Oc1ccccc1 (single isomer, unassigned)', '> 50 µM'),
  ('CC(C)OC(=O)[C@H](C)N[P@](=O)(OC[C@@]1(C#N)O[C@@H](c2ccc3c(N)ncnn23)[C@H](OC(=O)C(C)C)[C@@H]1O)Oc1ccccc1 (single isomer, unassigned)', '> 50 µM');

Here is another molecule to look at.
Dear colleague, I am looking for the recorded CC50 of the following molecule: CC(C)OC(=O)[C@H](C)N[P@](=O)(OC[C@@]1(C#N)O[C@@H](c2ccc3c(N)ncnn23)[C@H](OC(=O)C(C)(C)C)[C@@H]1O)Oc1ccccc1 (single isomer, unassigned)
> 50 µM

----------
experiment: HELA CC50 (cytotoxicity); conditions: human, HeLa cells
Metric: CC50

Dear colleague, I am looking for the recorded CC50 of the following compound: CCOC(=O)c1ccccc1OP1(=O)OC[C@@]2(C#N)O[C@@H](c3ccc4c(N)ncnn34)[C@H](OC(=O)CC)[C@@H]2O1 (stereo partly shown) [Example 230]
> 50 µM

----------
tested on: RSV strain A2; assay: RSV HEp-2 EC50 (infectious cytopathic cell protection assay); format: cell-based; details: human respiratory syncytial virus, HEp-2, 96 h, HEp-2 cells, RSV A2, 4 days; read-out: RSV HEp-2 EC50
Metric: pEC50
Remember, pEC50 is on a log scale: it is -log10 of the molar concentration.

See these solved cases before continuing.
INSERT INTO assay_data (compound, metric, readout_number) VALUES
  ('C[C@H](NP(=O)(OC[C@@]1(C#N)O[C@@H](c2ccc3c(N)ncnn23)[C@H](O)[C@@H]1O)Oc1ccccc1)C(=O)OC1CCCC1 (some centres unmarked) [Example 108]', 'pEC50', 6.83),
  ('C[C@H](NP(=O)(OC[C@@]1(C#N)O[C@@H](c2ccc3c(N)ncnn23)[C@H](O)[C@@H]1O)Oc1ccccc1)C(=O)OC1CCOCC1 (some centres unmarked) [Example 55]', 'pEC50', 6.24),
  ('CCC(CC)COC(=O)[C@H](C)N[P@@](=O)(OC[C@@]1(C#N)O[C@@H](c2ccc3c(N)ncnn23)[C@H](O)[C@@H]1O)Oc1ccccc1 (single isomer, unassigned) [Example 207]', 'pEC50', 6.91);

Here is another compound to look at.
Dear colleague, I am looking for the recorded pEC50 of the following compound: N#C[C@]1(COP(=O)(NCC(=O)OC2CCCC2)Oc2ccccc2)O[C@@H](c2ccc3c(N)ncnn23)[C@H](O)[C@@H]1O (single isomer, unassigned) [Example 113]
6.21

Entry source: patent US20230295201A1
